biological target: Cytochrome P450 2C9 (Homo sapiens, UniProt P11712)
Sequence (P11712 whole entry): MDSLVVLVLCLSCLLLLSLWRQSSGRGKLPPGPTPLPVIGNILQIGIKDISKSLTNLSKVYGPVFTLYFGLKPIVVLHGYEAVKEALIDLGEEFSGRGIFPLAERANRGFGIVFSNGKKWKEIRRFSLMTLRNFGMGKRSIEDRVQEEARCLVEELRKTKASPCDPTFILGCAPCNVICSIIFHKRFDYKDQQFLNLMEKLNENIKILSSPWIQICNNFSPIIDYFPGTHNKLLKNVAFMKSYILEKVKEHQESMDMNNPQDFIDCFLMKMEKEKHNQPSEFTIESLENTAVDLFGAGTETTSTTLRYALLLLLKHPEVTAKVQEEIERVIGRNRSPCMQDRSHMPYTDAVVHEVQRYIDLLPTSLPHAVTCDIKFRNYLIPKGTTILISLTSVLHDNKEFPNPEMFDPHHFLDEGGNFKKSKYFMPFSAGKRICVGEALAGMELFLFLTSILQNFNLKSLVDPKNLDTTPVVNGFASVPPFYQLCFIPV
MEASURED_PROPERTY: IC50

Sample NCc1ccc(F)c(C2CCN(C(=O)c3cccc(-c4nc(-c5cccs5)no4)c3)CC2)c1 ; IC50 observed: 0.48 µM

====

target: Tryptase beta-1 (Homo sapiens)
Sequence (Q15661 whole entry): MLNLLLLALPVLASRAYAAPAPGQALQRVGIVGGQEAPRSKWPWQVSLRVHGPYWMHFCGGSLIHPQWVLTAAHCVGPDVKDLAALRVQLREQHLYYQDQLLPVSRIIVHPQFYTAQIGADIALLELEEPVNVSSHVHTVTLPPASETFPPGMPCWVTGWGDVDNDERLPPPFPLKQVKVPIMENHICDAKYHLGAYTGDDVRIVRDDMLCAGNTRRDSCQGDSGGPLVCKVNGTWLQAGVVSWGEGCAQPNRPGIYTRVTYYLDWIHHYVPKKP
Assignment: determine reported Ki for the given compounds.
Answers are plain numbers, in nM.

Known Ki results, listed for orientation:
| LINE_NOTATION | SYSTEM_UNDER_TEST | Ki / nM |
| --- | --- | --- |
| NCc1ccc(F)c(C2CCN(C(=O)c3cccc(-c4nc(-c5cccs5)no4)c3)CC2)c1 | Tryptase beta-1 (Homo sapiens) | 4.3 |
| NCc1ccc(F)c(C2CCN(C(=O)c3cc(C(=O)O)cc(-c4nc(-c5cccs5)no4)c3)CC2)c1 | Tryptase beta-1 (Homo sapiens) | 88 |

Sample NCc1ccc(F)c(C2CCN(C(=O)c3cc(C(N)=O)cc(-c4nc(-c5cccs5)no4)c3)CC2)c1 ; Ki observed: 1.3

====

target: Cytochrome P450 2C19 (Homo sapiens)
Sequence (P33261 whole entry): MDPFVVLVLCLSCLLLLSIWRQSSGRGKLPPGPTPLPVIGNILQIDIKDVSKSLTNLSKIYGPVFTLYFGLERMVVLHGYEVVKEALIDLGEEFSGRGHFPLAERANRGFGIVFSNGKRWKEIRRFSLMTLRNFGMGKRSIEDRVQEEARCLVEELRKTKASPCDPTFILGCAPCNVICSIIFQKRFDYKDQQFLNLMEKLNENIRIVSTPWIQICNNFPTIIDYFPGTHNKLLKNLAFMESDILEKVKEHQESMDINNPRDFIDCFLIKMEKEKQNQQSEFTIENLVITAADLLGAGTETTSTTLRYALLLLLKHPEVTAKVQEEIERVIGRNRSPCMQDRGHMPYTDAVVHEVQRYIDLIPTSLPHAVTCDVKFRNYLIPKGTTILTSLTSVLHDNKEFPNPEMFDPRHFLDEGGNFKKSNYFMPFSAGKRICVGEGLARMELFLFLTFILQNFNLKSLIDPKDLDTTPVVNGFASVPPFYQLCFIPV
MEASURED_PROPERTY: pIC50
Answers are plain numbers, as −log10 of the molar value.

Sample NCc1ccc(F)c(C2CCN(C(=O)c3cccc(-c4nc(-c5cccs5)no4)c3)CC2)c1 ; pIC50 observed: 5.66

Numbers sourced from ChEMBL document CHEMBL1138723.
